- Assay Comment: Pharmacokinetics and metabolism after iv and po administration
- Assay type: in vivo
- Measurement Conditions: male, C57/BL6, mouse, plasma, po, 50 mg/kg, 0.5 h after po 50 mg/kg artemisone 7; read-out: Mean po circulating concentration
- Experimental: The plasma concentration-time profiles of the parent compounds and metabolites after administration iv and po to male C57/BL6 mice are presented in Figure 2, Figure 3 and Figure 4. Artemiside was quantifiable up to 24 h in all mice dosed iv and up to 7 h po (lower limit of quantitation LLOQ = 1.6 ng/mL or 0.004 μM) (Figure 2). […] For both artemiside and artemisox, the metabolite artemisone was quantifiable up to 3 h in both the po and iv groups (Figure 2 and Figure 3). […]
Test Readout: concentration at 0.5 h

### Prompt Please list concentration at 0.5 h recorded for the compound C[C@H]1[C@H](N2CCS(=O)(=O)CC2)O[C@@H]2O[C@@]3(C)CC[C@H]4[C@H](C)CC[C@@H]1[C@@]24OO3
### Response 1140 nM

###

- Assay Comment: Pharmacokinetics and metabolism after iv and po administration
- Type: in vivo
- Measurement Conditions: male, C57/BL6, mouse, plasma, iv, 5 mg/kg, 1 h after iv 5 mg/kg artemiside 5; read-out: Mean iv circulating concentration
- Procedure: The plasma concentration-time profiles of the parent compounds and metabolites after administration iv and po to male C57/BL6 mice are presented in Figure 2, Figure 3 and Figure 4. Artemiside was quantifiable up to 24 h in all mice dosed iv and up to 7 h po (lower limit of quantitation LLOQ = 1.6 ng/mL or 0.004 μM) (Figure 2). […] For both artemiside and artemisox, the metabolite artemisone was quantifiable up to 3 h in both the po and iv groups (Figure 2 and Figure 3). […]
# key: entry, value: concentration at 1 h
Dear colleague, please return just the value in nM, with no unit written.

Observe how each entry below is paired with its result.
> print(dat)
                                   molecule  reported.result
1  C[C@H]1[C@H](N2CCS(=O)(=O)CC2)O[C@@H]2O[C@@]3(C)CC[C@H]4[C@H](C)CC[C@@H]1[C@@]24OO3              160
2  C[C@H]1[C@H](N2CC[S+]([O-])CC2)O[C@@H]2O[C@@]3(C)CC[C@H]4[C@H](C)CC[C@@H]1[C@@]24OO3              674

### Prompt Please list concentration at 1 h recorded for the molecule C[C@H]1[C@H](N2CCSCC2)O[C@@H]2O[C@@]3(C)CC[C@H]4[C@H](C)CC[C@@H]1[C@@]24OO3 [Artemiside 5, Artemiside]
### Response 930

###

- Assay Comment: Pharmacokinetics and metabolism after iv and po administration
- Type: in vivo
- Measurement Conditions: male, C57/BL6, mouse, plasma, iv, 5 mg/kg, 0.5 h after iv 5 mg/kg artemisone 7; read-out: Mean iv circulating concentration
Test Readout: concentration at 0.5 h (nM)
Dear colleague, please return just the value in nM, with no unit written.

### Prompt Please list concentration at 0.5 h recorded for the compound C[C@H]1[C@H](N2CCS(=O)(=O)CC2)O[C@@H]2O[C@@]3(C)CC[C@H]4[C@H](C)CC[C@@H]1[C@@]24OO3
### Response 1720

###

- Assay Comment: Pharmacokinetics and metabolism after iv and po administration
- Format: in vivo
- Measurement Conditions: male, C57/BL6, mouse, plasma, po, 50 mg/kg, 1 h after po 50 mg/kg artemisox 6; read-out: Mean po circulating concentration
# key: entry, value: concentration at 1 h
Number first, unit second.

> print(dat)
                            molecule.smiles          test.readout  reported.result
1  C[C@H]1[C@H](N2CC[S+]([O-])CC2)O[C@@H]2O[C@@]3(C)CC[C@H]4[C@H](C)CC[C@@H]1[C@@]24OO3  concentration at 1 h          2010 nM

API: the following record is the query input.
### Prompt Please list concentration at 1 h recorded for the compound C[C@H]1[C@H](N2CCS(=O)(=O)CC2)O[C@@H]2O[C@@]3(C)CC[C@H]4[C@H](C)CC[C@@H]1[C@@]24OO3
### Response 3200 nM

Origin of the recorded values: paper PMC8704606
